Provenance of the data: ChEMBL document CHEMBL1629474

- Test system: Trypanosoma cruzi
- method: Antiparasitic activity against Trypanosoma cruzi T2 epimastigotes assessed as growth inhibition at 25 uM after 5 days
- Type: functional
Activity calls are given as the source filed them. No rule for the calls is given here.
observed-property: Activity

{"smiles-entry": "O=C(c1ccc2no[n+]([O-])c2c1)N1CCOCC1", "result": "Active"}
{"smiles-entry": "[O-][N+]1=c2cc(Cl)c(Cl)cc2=[N+]([O-])C12CCCC2", "result": "Active"}
{"smiles-entry": "O=Cc1ccc2no[n+]([O-])c2c1", "result": "Active"}

---

- Test system: Trypanosoma cruzi
- method: Antiparasitic activity against Trypanosoma cruzi T2 epimastigotes assessed as growth inhibition
- Type: functional
- reported-conditions: read-out: ID50 (the source's name)

{"smiles-entry": "O=c1cc(-c2ccccc2)oc2ccccc12", "comparison-symbol": ">", "IC50 [µM]": 25}
{"smiles-entry": "O=c1oc(-c2ccccc2)ns1", "comparison-symbol": "=", "IC50 [µM]": 22}
{"smiles-entry": "CC1=CC(=N/O)/C(=N\\O)C=C1", "comparison-symbol": "=", "IC50 [µM]": 25}
{"smiles-entry": "Cc1c(/C=N/NC(N)=S)no[n+]1[O-]", "comparison-symbol": ">", "IC50 [µM]": 25}

---

- experimental-system: Triosephosphate isomerase, glycosomal (Trypanosoma cruzi) (UniProt P52270)
- Sequence (P52270 whole entry): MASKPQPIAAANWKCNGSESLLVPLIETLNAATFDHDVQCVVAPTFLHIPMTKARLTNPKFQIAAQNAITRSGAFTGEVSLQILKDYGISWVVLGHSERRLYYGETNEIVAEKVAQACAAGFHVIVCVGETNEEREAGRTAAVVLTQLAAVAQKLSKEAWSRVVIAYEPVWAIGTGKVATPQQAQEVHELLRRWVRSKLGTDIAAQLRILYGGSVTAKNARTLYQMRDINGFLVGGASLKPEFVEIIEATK
- method: Inhibition of Trypanosoma cruzi triosephosphate isomerase at 400 uM after 2 hrs
Would you please tag the item yes (1) when its inhibition is 30% or above, and no (0) when it is below?

{"compound": "CNC(=S)N/N=C/C=C/c1ccc([N+](=O)[O-])o1", "experimental-system": "Triosephosphate isomerase, glycosomal (Trypanosoma cruzi) (UniProt P52270)", "qualitative-label": "no (0)"}
{"compound": "O=C(/C=C/c1ccc2c(c1)OCO2)c1ccccc1O", "experimental-system": "Triosephosphate isomerase, glycosomal (Trypanosoma cruzi) (UniProt P52270)", "qualitative-label": "no (0)"}
{"compound": "Cc1c(CNc2ccc3ccccc3c2)no[n+]1[O-]", "experimental-system": "Triosephosphate isomerase, glycosomal (Trypanosoma cruzi) (UniProt P52270)", "qualitative-label": "yes (1)"}
{"compound": "O=C(O)c1ccc(-c2nsc(CO)n2)cc1", "experimental-system": "Triosephosphate isomerase, glycosomal (Trypanosoma cruzi) (UniProt P52270)", "qualitative-label": "no (0)"}
{"compound": "C=CCNC(=S)N/N=C/C=C/c1ccc([N+](=O)[O-])s1", "experimental-system": "Triosephosphate isomerase, glycosomal (Trypanosoma cruzi) (UniProt P52270)", "qualitative-label": "no (0)"}
{"compound": "O=S(=O)(/C=C\\c1ccc2no[n+]([O-])c2c1)c1ccccc1", "experimental-system": "Triosephosphate isomerase, glycosomal (Trypanosoma cruzi) (UniProt P52270)", "qualitative-label": "yes (1)"}
{"compound": "[O-][n+]1onc(-c2ccccc2)c1CO", "experimental-system": "Triosephosphate isomerase, glycosomal (Trypanosoma cruzi) (UniProt P52270)", "qualitative-label": "no (0)"}
{"compound": "CC(=O)Oc1c(C)c(C)c2c(c1C)CCC(C)(C(=O)NCCOc1c(S(=O)(=O)c3ccccc3)no[n+]1[O-])O2 (stereo unspecified)", "experimental-system": "Triosephosphate isomerase, glycosomal (Trypanosoma cruzi) (UniProt P52270)", "qualitative-label": "no (0)"}
{"compound": "Cc1c(C(=O)Nc2ccccc2)[n+]([O-])c2cc(CNC/C=C/c3ccccc3)ccc2[n+]1[O-]", "experimental-system": "Triosephosphate isomerase, glycosomal (Trypanosoma cruzi) (UniProt P52270)", "qualitative-label": "no (0)"}
{"compound": "CC1(C)[N+]([O-])=c2ccc(COc3ccc(C=O)cc3)cc2=[N+]1[O-]", "experimental-system": "Triosephosphate isomerase, glycosomal (Trypanosoma cruzi) (UniProt P52270)", "qualitative-label": "no (0)"}
{"compound": "CC1(C)[N+]([O-])=c2ccc(/C=C/c3ccc4c(c3)OCO4)cc2=[N+]1[O-]", "experimental-system": "Triosephosphate isomerase, glycosomal (Trypanosoma cruzi) (UniProt P52270)", "qualitative-label": "no (0)"}
{"compound": "O=[N+]([O-])c1ccc2c(c1)c(OCc1ccccc1)nn2CCOCCN1CCSCC1", "experimental-system": "Triosephosphate isomerase, glycosomal (Trypanosoma cruzi) (UniProt P52270)", "qualitative-label": "no (0)"}
{"compound": "[O-][n+]1onc2ccc(/C=C/[S+]([O-])c3ccccc3)cc21 (stereo unspecified)", "experimental-system": "Triosephosphate isomerase, glycosomal (Trypanosoma cruzi) (UniProt P52270)", "qualitative-label": "no (0)"}
{"compound": "CC(=O)Oc1c(C)c(C)c2c(c1C)CCC(C)(C(=O)NCCO[N+](=O)[O-])O2 (stereo unspecified)", "experimental-system": "Triosephosphate isomerase, glycosomal (Trypanosoma cruzi) (UniProt P52270)", "qualitative-label": "no (0)"}
{"compound": "O=[N+]([O-])c1ccccc1C=Cc1ccc2no[n+]([O-])c2c1", "experimental-system": "Triosephosphate isomerase, glycosomal (Trypanosoma cruzi) (UniProt P52270)", "qualitative-label": "no (0)"}
{"compound": "Cc1nnc[n+]([O-])c1/C=C/c1ccc([N+](=O)[O-])o1", "experimental-system": "Triosephosphate isomerase, glycosomal (Trypanosoma cruzi) (UniProt P52270)", "qualitative-label": "yes (1)"}
{"compound": "O=[N+]([O-])c1ccc(/N=C/c2ccccc2[N+](=O)[O-])cc1", "experimental-system": "Triosephosphate isomerase, glycosomal (Trypanosoma cruzi) (UniProt P52270)", "qualitative-label": "yes (1)"}
{"compound": "N#Cc1c2ccccc2[n+]([O-])n1-c1ccc2ccccc2c1", "experimental-system": "Triosephosphate isomerase, glycosomal (Trypanosoma cruzi) (UniProt P52270)", "qualitative-label": "no (0)"}
{"compound": "O=C(/C=C/c1ccccc1)c1ccccc1", "experimental-system": "Triosephosphate isomerase, glycosomal (Trypanosoma cruzi) (UniProt P52270)", "qualitative-label": "yes (1)"}
{"compound": "Cc1nnsc1CO", "experimental-system": "Triosephosphate isomerase, glycosomal (Trypanosoma cruzi) (UniProt P52270)", "qualitative-label": "no (0)"}
{"compound": "CCCN(CCOCCn1nc(OCc2ccccc2)c2cc([N+](=O)[O-])ccc21)CCC(C)C1CC=C(C)CC1 (stereo unspecified)", "experimental-system": "Triosephosphate isomerase, glycosomal (Trypanosoma cruzi) (UniProt P52270)", "qualitative-label": "no (0)"}
{"compound": "O=[N+]([O-])c1ccc(/C=N/NC(=S)Nc2ccccc2)o1", "experimental-system": "Triosephosphate isomerase, glycosomal (Trypanosoma cruzi) (UniProt P52270)", "qualitative-label": "no (0)"}
{"compound": "[O-][n+]1onc2ccc(/C=N/O)cc21", "experimental-system": "Triosephosphate isomerase, glycosomal (Trypanosoma cruzi) (UniProt P52270)", "qualitative-label": "no (0)"}
{"compound": "COC(=O)N/N=C/c1c(C)no[n+]1[O-]", "experimental-system": "Triosephosphate isomerase, glycosomal (Trypanosoma cruzi) (UniProt P52270)", "qualitative-label": "no (0)"}
{"compound": "COc1ccc(/C=C/c2c(C)[n+]([O-])nc[n+]2[O-])cc1", "experimental-system": "Triosephosphate isomerase, glycosomal (Trypanosoma cruzi) (UniProt P52270)", "qualitative-label": "no (0)"}
{"compound": "O=C(N/N=C/C=C/c1ccc([N+](=O)[O-])o1)Nc1ccc2ccccc2c1", "experimental-system": "Triosephosphate isomerase, glycosomal (Trypanosoma cruzi) (UniProt P52270)", "qualitative-label": "yes (1)"}
{"compound": "[O-][n+]1onc2ccc(CBr)cc21", "experimental-system": "Triosephosphate isomerase, glycosomal (Trypanosoma cruzi) (UniProt P52270)", "qualitative-label": "no (0)"}
{"compound": "O=C1C(=Cc2ccc([N+](=O)[O-])cc2)C(=O)N(CCc2ccccc2)S(=O)(=O)N1CCc1ccccc1", "experimental-system": "Triosephosphate isomerase, glycosomal (Trypanosoma cruzi) (UniProt P52270)", "qualitative-label": "yes (1)"}
{"compound": "CN(C/C=C/c1ccccc1)Cc1ccc2no[n+]([O-])c2c1", "experimental-system": "Triosephosphate isomerase, glycosomal (Trypanosoma cruzi) (UniProt P52270)", "qualitative-label": "no (0)"}
{"compound": "Cc1ccc(-n2cc(C)[n+]([O-])c2)cc1", "experimental-system": "Triosephosphate isomerase, glycosomal (Trypanosoma cruzi) (UniProt P52270)", "qualitative-label": "no (0)"}
{"compound": "CNC(=S)N/N=C/c1ccc([N+](=O)[O-])o1", "experimental-system": "Triosephosphate isomerase, glycosomal (Trypanosoma cruzi) (UniProt P52270)", "qualitative-label": "no (0)"}
{"compound": "O=S(=O)(NC1CCCCC1)NC1CCCCC1", "experimental-system": "Triosephosphate isomerase, glycosomal (Trypanosoma cruzi) (UniProt P52270)", "qualitative-label": "no (0)"}
{"compound": "O=[N+]([O-])c1ccc(N2CCOCC2)c([N+](=O)[O-])c1", "experimental-system": "Triosephosphate isomerase, glycosomal (Trypanosoma cruzi) (UniProt P52270)", "qualitative-label": "no (0)"}
{"compound": "O=C1C(=Cc2ccc([N+](=O)[O-])s2)C(=O)N(C2CCCCC2)S(=O)(=O)N1C1CCCCC1", "experimental-system": "Triosephosphate isomerase, glycosomal (Trypanosoma cruzi) (UniProt P52270)", "qualitative-label": "yes (1)"}
{"compound": "[O-][n+]1onc(-c2ccccc2)c1CNc1ccc(Br)cc1", "experimental-system": "Triosephosphate isomerase, glycosomal (Trypanosoma cruzi) (UniProt P52270)", "qualitative-label": "yes (1)"}
{"compound": "C=C(C)CNC(=O)Oc1ccccc1", "experimental-system": "Triosephosphate isomerase, glycosomal (Trypanosoma cruzi) (UniProt P52270)", "qualitative-label": "yes (1)"}
{"compound": "O=Cc1ccc(OCc2ccc3no[n+]([O-])c3c2)cc1", "experimental-system": "Triosephosphate isomerase, glycosomal (Trypanosoma cruzi) (UniProt P52270)", "qualitative-label": "no (0)"}
{"compound": "N#Cc1c(N)[n+]([O-])c2ccc(CN3CCN(C/C=C/c4ccccc4)CC3)cc2[n+]1[O-]", "experimental-system": "Triosephosphate isomerase, glycosomal (Trypanosoma cruzi) (UniProt P52270)", "qualitative-label": "no (0)"}
{"compound": "COc1ccc(C=O)cc1-c1cc(C=O)ccc1O", "experimental-system": "Triosephosphate isomerase, glycosomal (Trypanosoma cruzi) (UniProt P52270)", "qualitative-label": "yes (1)"}
{"compound": "CCCCNC(=O)N/N=C/c1c(-c2ccccc2)no[n+]1[O-]", "experimental-system": "Triosephosphate isomerase, glycosomal (Trypanosoma cruzi) (UniProt P52270)", "qualitative-label": "no (0)"}
{"compound": "O=C(/C=C/c1ccccc1)c1ccccc1O", "experimental-system": "Triosephosphate isomerase, glycosomal (Trypanosoma cruzi) (UniProt P52270)", "qualitative-label": "no (0)"}
{"compound": "CCCCNC(=O)/C=C/c1ccc([N+](=O)[O-])o1", "experimental-system": "Triosephosphate isomerase, glycosomal (Trypanosoma cruzi) (UniProt P52270)", "qualitative-label": "no (0)"}
{"compound": "CC(=N\\c1ccc(C)cc1)/C(C)=N/c1ccc(C)cc1", "experimental-system": "Triosephosphate isomerase, glycosomal (Trypanosoma cruzi) (UniProt P52270)", "qualitative-label": "no (0)"}
{"compound": "COc1nn(CCOCCN2CCN(C/C=C/c3ccccc3)CC2)c2ccc([N+](=O)[O-])cc12", "experimental-system": "Triosephosphate isomerase, glycosomal (Trypanosoma cruzi) (UniProt P52270)", "qualitative-label": "no (0)"}
{"compound": "[O-][n+]1onc(-c2ccccc2)c1CNc1cccc2ccccc12", "experimental-system": "Triosephosphate isomerase, glycosomal (Trypanosoma cruzi) (UniProt P52270)", "qualitative-label": "yes (1)"}
